Values compiled from ChEMBL document CHEMBL4043225.

# test.system: Extracellular calcium-sensing receptor (Homo sapiens)
# assay.text: Agonist activity at human CaSR expressed in HEK293 cells assessed as increase in intracellular calcium mobilization by fluo-4AM dye based FLIPR assay
# Type: functional, cell-based
Assign class by %max: not lower than 80% means criterion met; lower than 80% means criterion not met.

Ask: Does the compound C[C@@H](N[C@H]1CCN(c2ccc(C(=O)NCC[N+](C)(C)C)cc2)C1)c1cccc2ccccc12.[Cl-] have recorded %max that is 80% or more?
Result: criterion met

Ask: Does the compound C[C@@H](N[C@H]1CCN(c2ccc(C(=O)NCCS(=O)(=O)O)cc2)C1)c1cccc2ccccc12 have recorded %max that is 80% or more?
Result: criterion met

Ask: Does the compound C[C@@H](N[C@H]1CCN(c2ccc(S(=O)(=O)NCC(=O)O)cc2)C1)c1cccc2ccccc12 have recorded %max that is 80% or more?
Result: criterion met

Ask: Does the compound C[C@@H](N[C@H]1CCN(c2ccc(P(=O)(O)O)cc2)C1)c1cccc2ccccc12 have recorded %max that is 80% or more?
Result: criterion not met

Ask: Does the compound C[C@@H](N[C@H]1CCN(c2ccc(C(=O)NCC(=O)O)cc2)C1)c1cccc2ccccc12 have recorded %max that is 80% or more?
Result: criterion not met

----------
# assay.text: Cmax in CD rat portal vein at 50 mg/kg, po administered via gavage
# Format: ADME, organism-based
# Set-up: dose 50 mg/kg, route oral
Answer each item with its documented Cmax.
The reply should be a number in ng/mL, with the unit left off.

Ask: Which Cmax reading was recorded for the molecule C[C@@H](N[C@H]1CCN(c2ccc(S(=O)(=O)NCC(=O)O)cc2)C1)c1cccc2ccccc12 ?
Result: 1120

Ask: Which Cmax reading was recorded for the molecule C[C@@H](N[C@H]1CCN(c2ccc(C(=O)NCC[N+](C)(C)C)cc2)C1)c1cccc2ccccc12.[Cl-] ?
Result: 164

----------
# assay.text: Cmax in CD rat systemic circulation at 30 mg/kg, po administered via gavage
# Assay type: ADME, organism-based
# Design: dose 30 mg/kg, route oral
quantity.name: Cmax (ng/mL)
The reply should be a number in ng/mL, with the unit left off.

Ask: Which Cmax reading was recorded for the compound C[C@@H](N[C@H]1CCN(c2ccc(C(=O)NCCCN3CCC(C(=O)O)CC3)cc2)C1)c1cccc2ccccc12 ?
Result: 48

Ask: Which Cmax reading was recorded for the compound C[C@@H](N[C@H]1CCN(c2ccc(C(=O)N[C@H](CC(=O)O)C(=O)O)cc2)C1)c1cccc2ccccc12 ?
Result: 9

Ask: Which Cmax reading was recorded for the compound C[C@@H](N[C@H]1CCN(c2ccc(C(=O)NCCCCNC(CO)(CO)CO)cc2)C1)c1cccc2ccccc12 ?
Result: 440

----------
Answer each item with its documented Cmax.
# assay.text: Cmax in CD rat portal vein at 30 mg/kg, po administered via gavage
# Format: ADME, organism-based
# Parameters: dose 30 mg/kg, route oral
The reply should be a number in ng/mL, with the unit left off.

Ask: Which Cmax reading was recorded for the compound C[C@@H](N[C@H]1CCN(c2ccc(C(=O)NCCn3cnc(C(=O)O)c3C(=O)O)cc2)C1)c1cccc2ccccc12 ?
Result: 6

Ask: Which Cmax reading was recorded for the compound C[C@@H](N[C@H]1CCN(c2ccc(C(=O)NCCCN3CCC(C(=O)O)CC3)cc2)C1)c1cccc2ccccc12 ?
Result: 57

Ask: Which Cmax reading was recorded for the compound C[C@@H](N[C@H]1CCN(c2ccc(C(=O)N[C@H](CC(=O)O)C(=O)O)cc2)C1)c1cccc2ccccc12 ?
Result: 12

Ask: Which Cmax reading was recorded for the compound C[C@@H](N[C@H]1CCN(c2ccc(C(=O)NCCCCNC(CO)(CO)CO)cc2)C1)c1cccc2ccccc12 ?
Result: 540

----------
# test.system: Extracellular calcium-sensing receptor (Mus musculus)
# Sequence (Q9QY96 whole entry): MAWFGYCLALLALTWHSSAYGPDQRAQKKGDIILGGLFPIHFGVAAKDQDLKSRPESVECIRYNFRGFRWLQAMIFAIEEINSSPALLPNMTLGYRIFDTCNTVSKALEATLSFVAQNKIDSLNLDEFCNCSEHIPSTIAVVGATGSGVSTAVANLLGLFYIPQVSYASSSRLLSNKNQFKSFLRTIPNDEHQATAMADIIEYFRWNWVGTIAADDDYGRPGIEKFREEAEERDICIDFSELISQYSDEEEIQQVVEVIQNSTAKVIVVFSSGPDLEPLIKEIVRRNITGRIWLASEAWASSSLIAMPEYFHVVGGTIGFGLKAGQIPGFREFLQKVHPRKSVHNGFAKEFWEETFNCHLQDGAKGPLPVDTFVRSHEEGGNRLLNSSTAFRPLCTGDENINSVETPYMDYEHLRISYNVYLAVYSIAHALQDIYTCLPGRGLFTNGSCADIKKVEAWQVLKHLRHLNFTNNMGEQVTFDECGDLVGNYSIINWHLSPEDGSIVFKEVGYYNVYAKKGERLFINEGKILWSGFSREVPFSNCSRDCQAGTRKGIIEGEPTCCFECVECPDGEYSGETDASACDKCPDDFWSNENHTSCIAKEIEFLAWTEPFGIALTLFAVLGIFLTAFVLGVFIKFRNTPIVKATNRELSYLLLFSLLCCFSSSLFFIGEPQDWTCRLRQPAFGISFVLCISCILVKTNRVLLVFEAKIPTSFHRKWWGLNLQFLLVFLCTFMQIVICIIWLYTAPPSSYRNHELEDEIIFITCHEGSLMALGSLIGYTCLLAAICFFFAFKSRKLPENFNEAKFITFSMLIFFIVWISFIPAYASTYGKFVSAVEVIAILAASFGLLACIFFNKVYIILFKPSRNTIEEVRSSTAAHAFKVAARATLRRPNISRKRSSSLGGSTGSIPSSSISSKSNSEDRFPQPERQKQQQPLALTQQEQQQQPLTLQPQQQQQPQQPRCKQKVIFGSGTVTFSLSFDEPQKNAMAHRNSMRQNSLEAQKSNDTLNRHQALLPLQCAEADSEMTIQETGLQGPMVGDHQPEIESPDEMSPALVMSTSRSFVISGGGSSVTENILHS
# assay.text: Agonist activity at mouse CaSR expressed in HEK293 cells assessed as increase in intracellular calcium mobilization by fluo-4AM dye based FLIPR assay
quantity.name: EC50 (nM)
The reply should be a number in nM, with the unit left off.

Ask: Which EC50 reading was recorded for the molecule C[C@@H](N[C@H]1CCN(c2ccc(C(=O)NCCCN3CCC(C(=O)O)CC3)cc2)C1)c1cccc2ccccc12 ?
Result: 251

----------
Answer each item with its documented %max.
# test.system: Extracellular calcium-sensing receptor (Homo sapiens) (UniProt P41180)
# Sequence (whole entry): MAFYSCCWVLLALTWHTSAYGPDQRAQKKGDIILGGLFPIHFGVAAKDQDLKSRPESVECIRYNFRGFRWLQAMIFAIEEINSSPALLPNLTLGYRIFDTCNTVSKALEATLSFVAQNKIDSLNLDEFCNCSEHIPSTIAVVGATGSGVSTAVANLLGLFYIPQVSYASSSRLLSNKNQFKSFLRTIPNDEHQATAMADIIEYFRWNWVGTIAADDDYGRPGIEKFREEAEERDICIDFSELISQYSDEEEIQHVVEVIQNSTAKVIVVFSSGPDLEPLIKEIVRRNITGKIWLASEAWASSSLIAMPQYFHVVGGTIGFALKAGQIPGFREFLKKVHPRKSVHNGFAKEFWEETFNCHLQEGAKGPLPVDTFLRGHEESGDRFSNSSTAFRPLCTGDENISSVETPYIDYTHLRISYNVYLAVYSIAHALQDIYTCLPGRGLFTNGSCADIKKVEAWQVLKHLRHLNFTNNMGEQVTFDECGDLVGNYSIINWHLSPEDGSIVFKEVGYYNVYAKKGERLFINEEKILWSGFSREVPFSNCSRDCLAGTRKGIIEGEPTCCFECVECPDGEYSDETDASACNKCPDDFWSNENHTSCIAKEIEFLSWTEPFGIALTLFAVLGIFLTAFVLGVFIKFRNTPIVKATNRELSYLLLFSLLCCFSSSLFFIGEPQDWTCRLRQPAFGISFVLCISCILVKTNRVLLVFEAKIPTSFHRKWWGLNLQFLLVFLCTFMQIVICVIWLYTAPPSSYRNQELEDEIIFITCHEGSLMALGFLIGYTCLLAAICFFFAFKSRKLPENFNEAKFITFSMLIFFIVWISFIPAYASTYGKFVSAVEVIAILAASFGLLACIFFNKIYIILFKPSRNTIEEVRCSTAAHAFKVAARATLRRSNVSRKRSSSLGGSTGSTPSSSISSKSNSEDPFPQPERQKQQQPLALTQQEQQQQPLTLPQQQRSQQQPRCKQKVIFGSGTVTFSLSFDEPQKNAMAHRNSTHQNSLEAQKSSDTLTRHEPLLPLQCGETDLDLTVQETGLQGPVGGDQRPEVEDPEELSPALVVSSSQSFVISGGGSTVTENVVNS
# assay.text: Agonist activity at human CaSR expressed in HEK293 cells assessed as increase in intracellular calcium mobilization by fluo-4AM dye based FLIPR assay
# Format: functional, cell-based
The reply should be a number in %, with the unit left off.

Ask: Which %max reading was recorded for the compound C[C@@H](N[C@H]1CCN(c2ccc(C(=O)NC(CO)(CO)CO)cc2)C1)c1cccc2ccccc12 ?
Result: 80

Ask: Which %max reading was recorded for the compound C[C@@H](N[C@H]1CCN(c2ccc(C(=O)NCCn3cnc(C(=O)O)c3C(=O)O)cc2)C1)c1cccc2ccccc12 ?
Result: 96

Ask: Which %max reading was recorded for the compound C[C@@H](N[C@H]1CCN(c2ccc(C(=O)NCCCCNC(CO)(CO)CO)cc2)C1)c1cccc2ccccc12 ?
Result: 92

Ask: Which %max reading was recorded for the compound C[C@@H](N[C@H]1CCN(c2ccc(C(=O)O)cc2)C1)c1cccc2ccccc12 ?
Result: 84

Ask: Which %max reading was recorded for the compound C[C@@H](N[C@H]1CCN(c2ccc(S(=O)(=O)NCCn3cnc(C(=O)O)c3C(=O)O)cc2)C1)c1cccc2ccccc12 ?
Result: 127

Ask: Which %max reading was recorded for the compound C[C@@H](N[C@H]1CCN(c2ccc(S(=O)(=O)NC(=O)CCC(=O)O)cc2)C1)c1cccc2ccccc12 ?
Result: 74

Ask: Which %max reading was recorded for the compound C[C@@H](N[C@H]1CCN(c2ccc(C(=O)N[C@H](CCCCN)C(=O)O)cc2)C1)c1cccc2ccccc12 ?
Result: 96

Ask: Which %max reading was recorded for the compound C[C@@H](N[C@H]1CCN(c2ccc(S(N)(=O)=O)cc2)C1)c1cccc2ccccc12 ?
Result: 87

Ask: Which %max reading was recorded for the compound C[C@@H](N[C@H]1CCN(c2ccc(C(=O)NCCNC(CO)(CO)CO)cc2)C1)c1cccc2ccccc12 ?
Result: 101

Ask: Which %max reading was recorded for the compound C[C@@H](N[C@H]1CCN(c2ccc(S(=O)(=O)NCCN(C)C)cc2)C1)c1cccc2ccccc12 ?
Result: 84

Ask: Which %max reading was recorded for the compound C[C@@H](N[C@H]1CCN(c2ccc(C(=O)NCCN)cc2)C1)c1cccc2ccccc12 ?
Result: 75

----------
# test.system: Extracellular calcium-sensing receptor (Homo sapiens, UniProt P41180)
# assay.text: Agonist activity at human CaSR expressed in HEK293 cells assessed as increase in intracellular calcium mobilization by fluo-4AM dye based FLIPR assay
# Type: functional, cell-based
# condition.notes: read-out: EC50
quantity.name: pEC50
Scale explanation: pEC50 corresponds to minus log10 of a concentration expressed in moles per litre.

Ask: Field: pEC50 (Extracellular calcium-sensing receptor (Homo sapiens, UniProt P41180)). Entry: C[C@@H](N[C@H]1CCN(c2ccc(C(=O)NCCCN3CCC(C(=O)O)CC3)cc2)C1)c1cccc2ccccc12
Result: 7.30
